B1: POU domain, class 4, transcription factor 1, residues 266 to 347; numbered along this chain, Q01851 (parent)
chain: RELEAFAERFKQRRIKLGVTQADVGSALANLKIPGVGSLSQSTICRFESLTLSHNNMIALKPILQAWLEEAEGAQREKMNKP

# Variants of: B1
# Test: abundance fitness (aPCA) (normalised: wild type 0, dead -1); higher = more abundant; growth selection in yeast, the domain comes from the species named
# Measurement parameters: Homo sapiens

[
  {
    "Variant notation": "K78V",
    "abundance fitness": -0.019
  },
  {
    "Variant notation": "G73E",
    "abundance fitness": 0.125
  },
  {
    "Variant notation": "E8Q",
    "abundance fitness": -0.019
  },
  {
    "Variant notation": "F6K",
    "abundance fitness": -1
  },
  {
    "Variant notation": "V36D",
    "abundance fitness": -0.463
  },
  {
    "Variant notation": "I58A",
    "abundance fitness": 0.041
  },
  {
    "Variant notation": "N56T",
    "abundance fitness": -0.029
  },
  {
    "Variant notation": "N80I",
    "abundance fitness": -0.121
  },
  {
    "Variant notation": "V36Q",
    "abundance fitness": -0.252
  },
  {
    "Variant notation": "R13D",
    "abundance fitness": -0.253
  },
  {
    "Variant notation": "R14A",
    "abundance fitness": -0.919
  },
  {
    "Variant notation": "T20I",
    "abundance fitness": -0.725
  },
  {
    "Variant notation": "F10G",
    "abundance fitness": -0.897
  },
  {
    "Variant notation": "P34N",
    "abundance fitness": -0.133
  },
  {
    "Variant notation": "E2V",
    "abundance fitness": -0.345
  },
  {
    "Variant notation": "N56I",
    "abundance fitness": -0.049
  },
  {
    "Variant notation": "L28T",
    "abundance fitness": -0.312
  },
  {
    "Variant notation": "Q41K",
    "abundance fitness": 0
  },
  {
    "Variant notation": "L3N",
    "abundance fitness": -0.287
  },
  {
    "Variant notation": "N30T",
    "abundance fitness": -0.046
  },
  {
    "Variant notation": "G73I",
    "abundance fitness": 0.121
  },
  {
    "Variant notation": "A66W",
    "abundance fitness": -0.192
  },
  {
    "Variant notation": "P62Q",
    "abundance fitness": -0.393
  },
  {
    "Variant notation": "A74G",
    "abundance fitness": -0.044
  },
  {
    "Variant notation": "I58D",
    "abundance fitness": -0.167
  },
  {
    "Variant notation": "K32Q",
    "abundance fitness": -0.022
  },
  {
    "Variant notation": "A27V",
    "abundance fitness": -0.16
  },
  {
    "Variant notation": "A66G",
    "abundance fitness": -0.029
  },
  {
    "Variant notation": "M57L",
    "abundance fitness": -0.031
  },
  {
    "Variant notation": "P82K",
    "abundance fitness": -0.047
  },
  {
    "Variant notation": "L50E",
    "abundance fitness": -0.26
  },
  {
    "Variant notation": "K16Q",
    "abundance fitness": 0.027
  },
  {
    "Variant notation": "E8L",
    "abundance fitness": 0.018
  },
  {
    "Variant notation": "V19W",
    "abundance fitness": -0.016
  },
  {
    "Variant notation": "L17N",
    "abundance fitness": -0.455
  },
  {
    "Variant notation": "C45M",
    "abundance fitness": 0.03
  },
  {
    "Variant notation": "Q41V",
    "abundance fitness": -0.054
  },
  {
    "Variant notation": "K16S",
    "abundance fitness": 0.013
  },
  {
    "Variant notation": "L64Q",
    "abundance fitness": -0.533
  },
  {
    "Variant notation": "W67L",
    "abundance fitness": -0.475
  },
  {
    "Variant notation": "R14P",
    "abundance fitness": -1.13
  },
  {
    "Variant notation": "N30R",
    "abundance fitness": -0.063
  },
  {
    "Variant notation": "K81G",
    "abundance fitness": 0.021
  },
  {
    "Variant notation": "R76F",
    "abundance fitness": -0.032
  },
  {
    "Variant notation": "R14D",
    "abundance fitness": -0.952
  },
  {
    "Variant notation": "T51M",
    "abundance fitness": -0.004
  },
  {
    "Variant notation": "Q41T",
    "abundance fitness": -0.055
  },
  {
    "Variant notation": "M57F",
    "abundance fitness": -0.309
  },
  {
    "Variant notation": "T43S",
    "abundance fitness": -0.109
  },
  {
    "Variant notation": "R76N",
    "abundance fitness": 0.026
  },
  {
    "Variant notation": "C45I",
    "abundance fitness": -0.001
  },
  {
    "Variant notation": "A59N",
    "abundance fitness": -0.278
  },
  {
    "Variant notation": "V19T",
    "abundance fitness": -0.125
  },
  {
    "Variant notation": "N55C",
    "abundance fitness": -0.036
  },
  {
    "Variant notation": "Q75A",
    "abundance fitness": 0
  },
  {
    "Variant notation": "E69W",
    "abundance fitness": -0.224
  },
  {
    "Variant notation": "N30K",
    "abundance fitness": 0.113
  },
  {
    "Variant notation": "W67C",
    "abundance fitness": -0.939
  },
  {
    "Variant notation": "E72C",
    "abundance fitness": -0.416
  },
  {
    "Variant notation": "A66V",
    "abundance fitness": -0.12
  },
  {
    "Variant notation": "T51W",
    "abundance fitness": -0.487
  },
  {
    "Variant notation": "E70C",
    "abundance fitness": -0.125
  },
  {
    "Variant notation": "R1S",
    "abundance fitness": -0.026
  },
  {
    "Variant notation": "L64W",
    "abundance fitness": -0.948
  },
  {
    "Variant notation": "S53R",
    "abundance fitness": -0.139
  }
]
